# Experimental Target: Serine/threonine-protein kinase Nek6 (Homo sapiens);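 note: values are the mean percent inhibition of NEK6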
# Protocol Conditions: at 0.1 µM
Please provide measured inhibition for the entries that follow.
Lab note: write values as number then unit, every time.

## Task Suppose we examine the compound `CNC(=O)c1cncc(/C=C/c2c(C)cccc2C)c1` ; what inhibition value has been reported?
## Result 1.65%

## Task Suppose we examine the compound `O=C(Nc1n[nH]c2cc(-c3ccccc3)ccc12)C1CC1` ; what inhibition value has been reported?
## Result 0.8%

## Task Suppose we examine the compound `O=C(NCC1CC1)c1ccc(-c2cccc(C(=O)NC3CC3)c2)cc1` ; what inhibition value has been reported?
## Result 1.75%

## Task Suppose we examine the compound `NC(=O)c1cc(-c2ccncc2)cc(-c2ccccc2)c1N` ; what inhibition value has been reported?
## Result 2.63%

## Task Suppose we examine the compound `O=C1NC(=O)C(c2cccc(Cl)c2)=C1Nc1ccc(Cl)c(C(=O)O)c1` ; what inhibition value has been reported?
## Result 2.53%

## Task Suppose we examine the compound `COc1cc2ncn(-c3cc(OCCc4ccccc4)c(C(N)=O)s3)c2cc1OC` ; what inhibition value has been reported?
## Result -0.94%

## Task Suppose we examine the compound `Cc1ccc(C(=O)NC2CCC2)cc1-c1ccc(C(=O)NCC2CC2)cc1` ; what inhibition value has been reported?
## Result -0.33%

## Task Suppose we examine the compound `Cc1ccc(NC(=O)c2ccoc2)cc1-c1ccc(C(=O)NCC2CC2)cc1` ; what inhibition value has been reported?
## Result 2.49%

## Task Suppose we examine the compound `c1ccc(-c2n[nH]cc2-c2ccnc(-c3ccc(OCCN4CCOCC4)cc3)c2)nc1` ; what inhibition value has been reported?
## Result -1.49%

## Task Suppose we examine the compound `COc1cc(Nc2ncc3c(C)nc(-c4cccc(C(F)(F)F)c4)n3n2)cc(OC)c1OC` ; what inhibition value has been reported?
## Result 4.4%

## Task Suppose we examine the compound `COc1cc(C)c(N(C)C(=O)CN(C)C)cc1Nc1nc(Nc2cccc(F)c2C(N)=O)c2cc[nH]c2n1` ; what inhibition value has been reported?
## Result 1.26%

###

# Experimental Target: Protein kinase C iota type (Homo sapiens) (UniProt P41743)
# Sequence (whole entry): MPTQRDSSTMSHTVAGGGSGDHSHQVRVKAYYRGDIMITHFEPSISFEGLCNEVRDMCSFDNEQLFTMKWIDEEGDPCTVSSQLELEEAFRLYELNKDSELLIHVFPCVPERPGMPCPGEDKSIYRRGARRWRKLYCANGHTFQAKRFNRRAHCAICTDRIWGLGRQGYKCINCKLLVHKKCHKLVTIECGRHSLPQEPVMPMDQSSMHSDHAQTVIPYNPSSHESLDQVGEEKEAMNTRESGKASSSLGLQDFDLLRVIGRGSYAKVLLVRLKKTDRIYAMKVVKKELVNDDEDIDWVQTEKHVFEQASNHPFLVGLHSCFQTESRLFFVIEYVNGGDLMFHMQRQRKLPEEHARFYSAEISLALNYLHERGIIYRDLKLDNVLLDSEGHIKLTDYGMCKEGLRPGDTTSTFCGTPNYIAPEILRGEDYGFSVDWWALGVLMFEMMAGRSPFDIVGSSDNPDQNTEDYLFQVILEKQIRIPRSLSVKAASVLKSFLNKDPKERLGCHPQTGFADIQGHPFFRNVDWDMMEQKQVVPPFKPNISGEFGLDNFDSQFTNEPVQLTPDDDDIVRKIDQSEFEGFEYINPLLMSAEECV
# Protocol Conditions: at 0.1 µM
# Description: GSK_PKIS: PKC-iota mean inhibition at 0.1 uM [Nanosyn]
Outcome label depends on inhibition relative to 2%: at/above gives rule met, below gives rule not met.

## Task Textbook exercise: given the entry `COc1cccc(/C=N/Nc2ncnc3c2cnn3-c2cccc(OC)c2)c1` , state whether its inhibition is greater than or equal to 2%.
## Result rule not met

## Task Textbook exercise: given the entry `CS(=O)(=O)CCNCc1ccc(-c2ccc3ncnc(Nc4ccc(OCc5ccccc5)c(Br)c4)c3c2)o1` , state whether its inhibition is greater than or equal to 2%.
## Result rule met

## Task Textbook exercise: given the entry `COc1cc(C)c(N(C)C(=O)CN(C)C)cc1Nc1nc(Nc2cccc(F)c2C(N)=O)c2cc[nH]c2n1` , state whether its inhibition is greater than or equal to 2%.
## Result rule not met

## Task Textbook exercise: given the entry `O=C(Nc1n[nH]c2nc(-c3ccc(O)cc3)c(Br)cc12)C1CC1` , state whether its inhibition is greater than or equal to 2%.
## Result rule met

## Task Textbook exercise: given the entry `Cc1nnc(-c2ccc(C)c(-c3ccc(C(=O)NCc4ccc(Cl)cc4)cc3)c2)o1` , state whether its inhibition is greater than or equal to 2%.
## Result rule met

###

# Experimental Target: Glycogen synthase kinase-3 beta (Homo sapiens) (UniProt P49841);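 note: values are mean percent inhibition of GSK3B activity, from the GSK Published Kinase Inhibitor Set (PKIS) screening dataset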
# Sequence (P49841 whole entry, looked up): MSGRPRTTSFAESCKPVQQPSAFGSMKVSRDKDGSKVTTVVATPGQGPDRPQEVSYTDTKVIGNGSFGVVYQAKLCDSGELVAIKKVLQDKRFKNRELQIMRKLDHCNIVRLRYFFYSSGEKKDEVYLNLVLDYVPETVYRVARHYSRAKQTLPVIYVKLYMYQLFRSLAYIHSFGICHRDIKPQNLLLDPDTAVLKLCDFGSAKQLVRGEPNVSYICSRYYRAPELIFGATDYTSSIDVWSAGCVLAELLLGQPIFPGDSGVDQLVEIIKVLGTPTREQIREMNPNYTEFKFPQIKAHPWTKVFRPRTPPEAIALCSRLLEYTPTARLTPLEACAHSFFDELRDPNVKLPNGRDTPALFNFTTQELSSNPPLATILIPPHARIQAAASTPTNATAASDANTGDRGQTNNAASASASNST
# Protocol Conditions: at 0.1 µM
Measure: inhibition (%)
Give your result in % as a bare value.

## Task Suppose we examine the compound `CS(=O)(=O)CCNCc1cc(-c2cc3c(Nc4ccc(OCc5cccc(F)c5)c(Cl)c4)ncnc3s2)cs1` ; what inhibition value has been reported?
## Result 1.53

## Task Suppose we examine the compound `CCc1nccc2c1nc(-c1nonc1N)n2CC` ; what inhibition value has been reported?
## Result 2.74

## Task Suppose we examine the compound `NC(=O)c1cc(-c2ccncc2)cc(-c2ccccc2)c1N` ; what inhibition value has been reported?
## Result 2.53

## Task Suppose we examine the compound `NS(=O)(=O)c1ccc(N/N=C2\C(=O)Nc3ccc(C(=O)NCCCn4ccnc4)cc32)cc1` ; what inhibition value has been reported?
## Result 39.7

## Task Suppose we examine the compound `COc1cc2ncn(-c3cc(OCCc4ccccc4)c(C(N)=O)s3)c2cc1OC` ; what inhibition value has been reported?
## Result 0.44

###

# Experimental Target: Testis-specific serine/threonine-protein kinase 2 (Homo sapiens) (UniProt Q96PF2);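 note: values are mean inhibition of TSSK2 activity from the GSK PKIS profiling panel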
# Sequence (whole entry): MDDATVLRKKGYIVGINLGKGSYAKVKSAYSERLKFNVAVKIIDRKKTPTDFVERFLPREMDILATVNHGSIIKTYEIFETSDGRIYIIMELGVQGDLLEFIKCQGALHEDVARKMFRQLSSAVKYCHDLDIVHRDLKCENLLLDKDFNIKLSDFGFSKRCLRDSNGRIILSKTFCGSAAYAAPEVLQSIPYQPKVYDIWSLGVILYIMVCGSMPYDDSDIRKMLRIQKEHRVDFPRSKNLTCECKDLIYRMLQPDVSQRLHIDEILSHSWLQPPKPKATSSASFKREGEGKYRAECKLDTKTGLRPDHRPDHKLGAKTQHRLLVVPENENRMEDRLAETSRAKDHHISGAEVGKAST
# Protocol Conditions: at 0.1 µM
Please provide measured inhibition for the entries that follow.
Give your result in % as a bare value.

## Task Suppose we examine the compound `N#Cc1ccc(Oc2nccc(-c3c(-c4ccc(F)cc4)ncn3C3CCNCC3)n2)cc1` ; what inhibition value has been reported?
## Result 1.71

## Task Suppose we examine the compound `O=C(Nc1n[nH]c2cc(-c3cc(F)ccc3F)ccc12)C1CC1` ; what inhibition value has been reported?
## Result 1.22

## Task Suppose we examine the compound `NC(=O)c1cc(-c2ccncc2)cc(-c2ccccc2)c1N` ; what inhibition value has been reported?
## Result 2.4

## Task Suppose we examine the compound `CCS(=O)(=O)c1ccc(OC)c(Nc2ncc(-c3cccc(-c4ccccc4F)c3)o2)c1` ; what inhibition value has been reported?
## Result 0.42

## Task Suppose we examine the compound `FC(F)(F)c1cccc(Nc2nccc(-c3cnn4nc(-c5ccccc5)ccc34)n2)c1` ; what inhibition value has been reported?
## Result 1.62

###

# Experimental Target: Phosphatidylinositol 4,5-bisphosphate 3-kinase catalytic subunit delta isoform (Homo sapiens);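 note: reported values are mean percent inhibition of PI3K-delta activity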
# Protocol Conditions: at 1 µM
Measure: inhibition (%)
Give your result in % as a bare value.

## Task Suppose we examine the compound `CCc1nccc2c1nc(-c1nonc1N)n2CC` ; what inhibition value has been reported?
## Result 4.23

## Task Suppose we examine the compound `O=C(Nc1n[nH]c2nc(-c3ccc(O)cc3)c(Br)cc12)C1CC1` ; what inhibition value has been reported?
## Result 6.8

## Task Suppose we examine the compound `CCS(=O)(=O)c1ccc(OC)c(Nc2ncc(-c3cccc(-c4ccccc4F)c3)o2)c1` ; what inhibition value has been reported?
## Result 5.89

## Task Suppose we examine the compound `COc1cc2ncn(-c3cc(OCc4cccs4)c(C(N)=O)s3)c2cc1OC` ; what inhibition value has been reported?
## Result 12.9

## Task Suppose we examine the compound `COc1cc(Nc2ncc3c(C)nc(-c4cccc(Oc5ccccc5)c4)n3n2)cc(OC)c1OC` ; what inhibition value has been reported?
## Result 2.99

###

# Experimental Target: Serine/threonine-protein kinase 3 (Homo sapiens);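 note: reported value is the mean percent inhibition of MST2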
# Protocol Conditions: at 0.1 µM
Measure: inhibition (%)
Give your result in % as a bare value.

## Task Suppose we examine the compound `O=C1Nc2ccc(I)cc2C1=Cc1cc(Br)c(O)c(Br)c1` ; what inhibition value has been reported?
## Result 3.5

## Task Suppose we examine the compound `N#Cc1ccc(Oc2nccc(-c3c(-c4ccc(F)cc4)ncn3C3CCNCC3)n2)cc1` ; what inhibition value has been reported?
## Result 5.75

## Task Suppose we examine the compound `C#Cc1cccc(Nc2ncnc3ccc(OCCCCNCCS(C)(=O)=O)cc23)c1` ; what inhibition value has been reported?
## Result 5.45

## Task Suppose we examine the compound `COc1ccc2ncn(-c3cc(O[C@H](C)c4ccccc4Cl)c(C(N)=O)s3)c2c1` ; what inhibition value has been reported?
## Result 6.32

## Task Suppose we examine the compound COc1ccc2cc(-c3c(-c4ccncc4)nc(-c4ccc([S+](C)[O-])cc4C)n3C)ccc2c1 (stereo not given) ; what inhibition value has been reported?
## Result -0.9

## Task Suppose we examine the compound `CCS(=O)(=O)c1ccc(OC)c(Nc2ncc(-c3cccc(-c4ccccc4F)c3)o2)c1` ; what inhibition value has been reported?
## Result 0.7

## Task Suppose we examine the compound `O=C(Nc1n[nH]c2nc(-c3ccco3)ccc12)C1CC1` ; what inhibition value has been reported?
## Result 0

## Task Suppose we examine the compound `NC(=O)c1ccc(Oc2nccc(-c3c(-c4ccc(F)cc4)ncn3C3CCNCC3)n2)cc1` ; what inhibition value has been reported?
## Result 8.2

## Task Suppose we examine the compound `Fc1ccc(-c2nc3n(c2-c2ccncc2)CCS3)cc1` ; what inhibition value has been reported?
## Result 3.46

## Task Suppose we examine the compound `Cc1ccc(C(=O)NC(C)C)cc1-c1ccc(C(=O)NCC2CC2)cc1` ; what inhibition value has been reported?
## Result -4.19
